# reported melting point; entries follow

Recorded melting point, per entry:
molecule	melting point
OCCNc1nccc(-c2c(-c3ccc(F)cc3)ncn2C2CCCCC2)n1 [compound 84]	180 to 184 °C
Nc1nccc(-c2c(-c3ccc(F)cc3)ncn2C2CCC2)n1 [ZH-62]	229 to 231 °C
CCn1cnc(-c2ccc(F)cc2)c1-c1ccnc(N)n1 [ZH-6]	204 to 212 °C

GET /values?readout=melting point&item= Nc1nccc(-c2c(-c3ccc(F)cc3)ncn2CC2CCCCC2)n1 [ZH-138]
180 to 199 °C

GET /values?readout=melting point&item= Fc1ccc(-c2ncn(C3CCCCC3)c2-c2ccnc(NC3CCC3)n2)cc1 [compound 81]
185 to 189 °C

GET /values?readout=melting point&item= CC(C)(C)n1cnc(-c2ccc(F)cc2)c1-c1ccnc(N)n1 [ZH9-190]
189 to 197 °C

GET /values?readout=melting point&item= C#CCNc1nccc(-c2c(-c3ccc(F)cc3)ncn2C2CCCCC2)n1 [compound 83]
147 to 155 °C

Values compiled from patent US20200079757A1.
